System: NCI/ADR-RES
Test: NCI tumour cell line growth inhibition, 48 h
Active and inactive are the calls of the source. No stated cut-off is given here; in the data, active = GI50 up to about 1.1 µM and inactive = higher. Non-standard residues stand in square brackets, D forms with d. Residues, ends and D or L forms follow the SMILES beside them. ξ: configuration not given here. *: point of attachment. ξHyp = O=C(O)C1CC(O)CN1; Cbz = O=C(OCc1ccccc1)*
Measured GI50 accompanies every entry in the list below.

Example entries begin here.
NC(=O)CNC(=O)C1CC(O)CN1C(=O)OCc1ccccc1 (centres undefined) (Cbz-[ξHyp]-Gly-NH2)    > 100 µM (inactive)
O=C(O)CCC(NC(=O)c1ccc(OCc2nc3cc(C(F)(F)F)ccc3nc2-c2ccccc2)cc1)C(=O)O (centres undefined)    > 100 µM (inactive)
Cc1cccc(N2C(=O)C3ON(C(C(N)=O)c4ccccc4)C(c4c5ccccc5c(Cl)c5ccccc45)C3C2=O)c1C (centres undefined)    10.9 µM (inactive)
O=c1[nH]nc(Cc2ccccc2)n1/N=C/c1c(O)ccc2ccccc12    20.1 µM (inactive)
COC(=O)CCNC(=O)OCc1ccccc1    > 100 µM (inactive)
COc1cc([C@H]2CC(=O)C[C@@H](c3cc(OC)c(OC)c(OC)c3)C23C(=O)c2ccccc2C3=O)cc(OC)c1OC    > 100 µM (inactive)
Cc1cc(C)c(S(=O)(=O)N(CCCN)OCCON(CCCN)S(=O)(=O)c2c(C)cc(C)cc2C)c(C)c1    22.1 µM (inactive)
N#CC1=C(Nc2ccccc2)SC=C(c2ccccc2)N=C1NCc1ccccc1    > 100 µM (inactive)

// below: GI50 requested for another compound
Ask: GET /values?readout=GI50&item= Cc1nnc(N)nc1/C=C\c1cccs1
Reply: 16.7 µM (inactive)
